test: randomized 4-week study in OIC: SP-333 plasma levels; format: in vivo, human; details: human, plasma, 6 mg, subject 007-013; SP-333: 6 mg; visit week 1; time 30; read-out: SP-333 concentration
Positions of bridges follow the written chain, without caps; N, C: chain ends. Non-standard residues stand in square brackets, D forms with d. Residues, ends and D or L forms follow the SMILES beside them.
Outcome Measure: level at 0.5 h (ng/mL)
Field: numeric (ng/mL). Do not append units.

Ask: Reported level at 0.5 h, compound CC(C)C[C@@H]1NC(=O)[C@H](CCC(=O)O)NC(=O)[C@@H](NC(=O)[C@H](CCC(=O)O)NC(=O)[C@H](CC(=O)O)NC(=O)[C@H](N)CC(N)=O)CSSC[C@@H]2NC(=O)[C@H](C)NC(=O)[C@H](C(C)C)NC(=O)[C@H](CC(N)=O)NC(=O)[C@H](C(C)C)NC(=O)[C@H](CSSC[C@@H](C(=O)N[C@H](CC(C)C)C(=O)O)NC(=O)CNC(=O)[C@H]([C@@H](C)O)NC2=O)NC1=O [SP-333] (H-[dN]DECELCVNVACTGC[dL]-OH; disulfide 4-12, 7-15) : ____
Reply: 1.38

* * *

assay: randomized 4-week study in OIC: SP-333 plasma levels; format: in vivo, human; settings: human, plasma, 6 mg, subject 047-002; SP-333: 6 mg; visit week 4; time 30; read-out: SP-333 concentration
Positions of bridges follow the written chain, without caps; N, C: chain ends. Non-standard residues stand in square brackets, D forms with d. Residues, ends and D or L forms follow the SMILES beside them.
Outcome Measure: level at 0.5 h
Express your answer as a number followed by its unit.

Ask: May I ask what level at 0.5 h has been recorded for CC(C)C[C@@H]1NC(=O)[C@H](CCC(=O)O)NC(=O)[C@@H](NC(=O)[C@H](CCC(=O)O)NC(=O)[C@H](CC(=O)O)NC(=O)[C@H](N)CC(N)=O)CSSC[C@@H]2NC(=O)[C@H](C)NC(=O)[C@H](C(C)C)NC(=O)[C@H](CC(N)=O)NC(=O)[C@H](C(C)C)NC(=O)[C@H](CSSC[C@@H](C(=O)N[C@H](CC(C)C)C(=O)O)NC(=O)CNC(=O)[C@H]([C@@H](C)O)NC2=O)NC1=O [SP-333] (H-[dN]DECELCVNVACTGC[dL]-OH; disulfide 4-12, 7-15) ?
Reply: 1.21 ng/mL

Taken from patent US20160367622A1.
